MEASURED_TARGET: TLR7 (Homo sapiens)
Construct: Human peripheral blood mononuclear cells (PBMCs) consist of lymphocytes, monocytes and dendritic cells that express TLR7, TLR8 and TLR9; endogenous in cells
Sequence (Q9NYK1 27-1049): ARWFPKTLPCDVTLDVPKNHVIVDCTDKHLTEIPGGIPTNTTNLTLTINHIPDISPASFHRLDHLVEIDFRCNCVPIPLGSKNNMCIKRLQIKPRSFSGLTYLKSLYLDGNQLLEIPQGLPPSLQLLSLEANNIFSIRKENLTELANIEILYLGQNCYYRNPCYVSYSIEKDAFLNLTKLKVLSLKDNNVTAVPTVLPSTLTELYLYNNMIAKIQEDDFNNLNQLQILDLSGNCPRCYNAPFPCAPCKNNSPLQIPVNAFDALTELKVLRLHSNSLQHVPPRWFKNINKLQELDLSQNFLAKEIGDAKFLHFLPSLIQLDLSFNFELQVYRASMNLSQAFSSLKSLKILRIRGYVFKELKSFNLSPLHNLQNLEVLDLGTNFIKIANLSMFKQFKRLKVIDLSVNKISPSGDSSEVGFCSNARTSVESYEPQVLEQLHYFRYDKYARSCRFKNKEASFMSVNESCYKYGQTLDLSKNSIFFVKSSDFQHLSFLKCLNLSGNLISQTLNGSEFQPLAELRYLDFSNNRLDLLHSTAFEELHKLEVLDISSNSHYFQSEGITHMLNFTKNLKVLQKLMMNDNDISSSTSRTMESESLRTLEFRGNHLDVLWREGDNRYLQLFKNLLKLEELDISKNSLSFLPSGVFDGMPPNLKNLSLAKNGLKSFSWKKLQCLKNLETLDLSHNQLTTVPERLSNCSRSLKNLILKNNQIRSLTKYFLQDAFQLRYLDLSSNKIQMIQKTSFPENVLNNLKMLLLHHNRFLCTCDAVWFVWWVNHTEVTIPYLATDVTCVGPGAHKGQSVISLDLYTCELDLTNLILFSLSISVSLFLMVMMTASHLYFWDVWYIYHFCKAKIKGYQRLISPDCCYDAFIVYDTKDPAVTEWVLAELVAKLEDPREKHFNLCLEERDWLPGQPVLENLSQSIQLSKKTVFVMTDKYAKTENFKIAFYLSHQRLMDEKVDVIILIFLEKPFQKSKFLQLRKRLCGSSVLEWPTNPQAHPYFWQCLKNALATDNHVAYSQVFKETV
PROTOCOL_DESCRIPTION: TLR7 human PBMC cell-based assay (antagonist, GS-986 stimulated cytokine release)
EXPERIMENTAL_CONTEXT: human PBMCs; TLR7 agonist GS-986 400 nM, 6 hours; cytokines (IL-6 and IFNα) in supernatant; read-out: TLR-7 EC50
QUANTITY_MEASURED: pEC50
// pEC50 here means minus log10 of the molar concentration (mol/L)

Illustrative cases are given below, each with its answer.
CCN(C(=O)c1cc2[nH]c(-c3cc(C)c4ncnn4c3)c(C(C)C)c2s1)C1CCNCC1 : 9.40
Cc1cc(-c2[nH]c3cc(C4CCN(CC5(C)COC5)CC4)sc3c2C(C)C)cn2ncnc12 : 8.68
Cc1cc(-c2[nH]c3cc(C(=O)N(C)C4CCN(CCC#N)CC4)sc3c2C(C)C)cn2ncnc12 : 7.76

# value lookup — system TLR7 (Homo sapiens), readout pEC50, item Cc1cc(-c2[nH]c3cc(C4CCC5(CC4)CNC5)sc3c2C(C)C)cn2ncnc12
9.40

Each recorded value in this set is attributed to patent US20240217990A1.
